- TEST NAME: NCI Yeast Anticancer Drug Screen. Data for the mlh1 strain (AID 171);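 note: 0% = growth of vehicle-treated control cultures of the same strain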
- CONDITIONS USED: S. cerevisiae mlh1 strain growth inhibition; at 11.0 µM; hits give high values
Compounds without any hit were thinned out: in the full panel of roughly 79,000, 15% have a hit.
Below: a set of entries, each annotated with reported growth inhibition.
State just the number; it will be interpreted in %.

COc1ccc2c(c1)C(=O)c1ccccc1C2 : 4
COc1cc(C2c3cc4c(cc3OC(Nc3ccccc3)C2C)OCO4)cc(OC)c1O (configuration not stated) : 0
O=C(Nc1ccc(Cl)cc1)OCC#CCCl : 97

Problem: Dear colleague, I am looking for the recorded growth inhibition of the following compound: N#CC(C(=O)Nc1ccccc1)C1=C(Cl)C(=O)c2ccccc2C1=O (configuration not stated)
Solution: 98

Problem: Dear colleague, I am looking for the recorded growth inhibition of the following compound: O=C(/C=C/c1cccc(Br)c1)c1cccs1
Solution: 89

Problem: Dear colleague, I am looking for the recorded growth inhibition of the following compound: Cn1ccnc1Oc1ccc(Cl)cc1
Solution: 0

Problem: Dear colleague, I am looking for the recorded growth inhibition of the following compound: O=C(O)c1cccc(-c2c3ccc(=O)cc-3oc3cc(O)ccc23)c1
Solution: 39

Problem: Dear colleague, I am looking for the recorded growth inhibition of the following compound: CN(C)Cc1cc(N=Nc2ccc(Cl)cc2)cc(CN(C)C)c1O
Solution: 12

Problem: Dear colleague, I am looking for the recorded growth inhibition of the following compound: COc1ccc(/C=C/C(=O)C(C)(C)Br)cc1
Solution: 33

Problem: Dear colleague, I am looking for the recorded growth inhibition of the following compound: Cc1c(Cl)ccc2c1S(=O)(=O)c1cccc(Cl)c1-2
Solution: -5

Problem: Dear colleague, I am looking for the recorded growth inhibition of the following compound: CSc1nc(=S)[nH]c2c1c(C)nn2-c1ccccc1
Solution: 32

Problem: Dear colleague, I am looking for the recorded growth inhibition of the following compound: CC(C)NC(=O)OCc1c(COC(=O)NC(C)C)c(-c2ccc(Cl)c(Cl)c2)n2c1CCC2
Solution: -69

---

Below: a set of entries, each annotated with reported growth inhibition.
- TEST NAME: NCI Yeast Anticancer Drug Screen. Data for the rad50EPP+ strain (AID 151);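 note: 0% = growth of vehicle-treated control cultures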
- CONDITIONS USED: S. cerevisiae rad50 mutant strain, at 1.2 µM, hits give high values
Compounds without any hit were thinned out: in the full panel of roughly 79,000, 15% have a hit.
State just the number; it will be interpreted in %.

For orientation, consider the following solved cases.
O=C(NCCCCNCCCNC(=O)c1cc(-c2ccccc2)nc2ccccc12)c1cc(-c2ccccc2)nc2ccccc12 : 1
[N-]=[N+]=NC1=C(c2ccccn2)C(=O)c2cccc3cccc1c23 : 9
Nc1nc(-c2cccnc2)cc(-c2cc(-c3cccnc3)nc(N)n2)n1 : -2
Cc1cc(N=Nc2ccc(S(=O)(=O)[O-])cc2)cc(C(=O)[O-])c1[O-].NC1CCCCC1N.[Na+].[Pt+4] : 25

// next entry
Problem: Dear colleague, I am looking for the recorded growth inhibition of the following molecule: O=CNc1ccc2c(c1)C(=O)c1ccccc1-2
Solution: 5

---

- TEST NAME: NCI Yeast Anticancer Drug Screen. Data for the bub3 strain (AID 167)
- CONDITIONS USED: S. cerevisiae bub3 mutant strain, at 5.0 µM (retest, dose inferred, filed as 0.5), hits give high values
Compounds without any hit were thinned out: in the full panel of roughly 79,000, 15% have a hit.
Mark criterion met for reported growth inhibition of 30% or greater; mark criterion not met for anything smaller.

C[S+](C)C1(c2ccccc2)C(=O)c2ccccc2C1=O : criterion not met
CN(C)CCOc1ccc2c(c1)C/C(=C/c1ncc([N+](=O)[O-])n1C)C2=O : criterion not met
CC(/C=C/c1ccc(Cl)cc1)=N\NC(=S)NCC(C)C : criterion not met
O=C(N=Nc1ccccc1Cl)NNc1ccccc1Cl : criterion not met
O=[N+]([O-])/C=C/c1ccc2ccccc2c1 : criterion met

Now turn to the next compound.
Problem: Exam item: decide whether the reported growth inhibition for CC(=O)OC1CCC2(C)C(=CCC3C4CCC5(OC6CC(C)CN(C(C)=O)C6C5C)C(C)=C4C(=O)C32)C1 (stereo unspecified) is at least 30%.
Solution: criterion met

The values you see were collected from PubChem BioAssay (NCI).
